Reference source for all entries: ChEMBL document CHEMBL1138614

Here, each record is paired with measured MIC data.
tested on: Staphylococcus aureus; assay: Antibacterial activity against Staphylococcus aureus C463 after 18 to 20 hrs by agar dilution method; type: functional
Answer format: numeric, µg/mL implied, no suffix.

Here is how some molecules turned out for MIC.
# molecule, readout_number
rows = [
    ("CC(=O)NC[C@H]1CN(c2ccc(N3CC(F)C4(CC4)C3)c(F)c2)C(=O)O1 (stereo not given in full)", 3.12),
    ("CCO/N=C1\\CN(c2ccc(N3C[C@H](CNC(C)=O)OC3=O)cc2F)CC12CC2", 12.5),
    ("CC(=O)NC[C@H]1CN(c2ccc(N3CC(=O)C4(CC4)C3)c(F)c2)C(=O)O1", 3.12),
    ("CO/N=C1\\CN(c2ccc(N3C[C@H](CNC(C)=O)OC3=O)cc2F)CC12CC2", 6.25),
]

Next:
Query string: State the recorded MIC for this entry: CC(=O)NC[C@H]1CN(c2ccc(N3CCOCC3)c(F)c2)C(=O)O1 [LINEZOLID]
Result string: 3.12

====

tested on: Enterococcus; assay: Antibacterial activity against vancomycin-resistant Enterococcus 3 after 18 to 20 hrs by agar dilution method; assay type: functional
Here, each record is paired with measured MIC data.
Answer format: numeric, µg/mL implied, no suffix.

Here is how some compounds turned out for MIC.
# compound, system, MIC (µg/mL)
rows = [
    ("CC(=O)NC[C@H]1CN(c2ccc(N3CC(F)C4(CC4)C3)c(F)c2)C(=O)O1 (stereo not given in full)", "Enterococcus", 3.12),
    ("CC(=O)NC[C@H]1CN(c2ccc(N3CC(=O)C4(CC4)C3)c(F)c2)C(=O)O1", "Enterococcus", 1.56),
    ("CC(=O)NC[C@H]1CN(c2ccc(N3CCOCC3)c(F)c2)C(=O)O1", "Enterococcus", 1.56),
    ("CO/N=C1\\CN(c2ccc(N3C[C@H](CNC(C)=O)OC3=O)cc2F)CC12CC2", "Enterococcus", 6.25),
]

Query string: Given the entry `CC(=O)NC[C@H]1CN(c2ccc(N3C/C(=N\O)C4(CC4)C3)c(F)c2)C(=O)O1` , what MIC was observed with Enterococcus?
Result string: 6.25

Query string: Same read-out for CC(=O)NC[C@H]1CN(c2ccc(N3CC(N)C4(CC4)C3)c(F)c2)C(=O)O1 (stereo not given in full) ?
Result string: 6.25

Query string: Same read-out for CC(=O)NC[C@H]1CN(c2ccc(N3CC(O)C4(CC4)C3)c(F)c2)C(=O)O1 (stereo not given in full) ?
Result string: 6.25

Query string: Same read-out for `CCO/N=C1\CN(c2ccc(N3C[C@H](CNC(C)=O)OC3=O)cc2F)CC12CC2` ?
Result string: 6.25

Query string: Same read-out for `CCCO/N=C1\CN(c2ccc(N3C[C@H](CNC(C)=O)OC3=O)cc2F)CC12CC2` ?
Result string: 12.5

Query string: Same read-out for `CC(=O)NC[C@H]1CN(c2ccc(N3C/C(=N\N)C4(CC4)C3)c(F)c2)C(=O)O1` ?
Result string: 12.5

====

test system: Enterococcus faecium; experiment: Antibacterial activity against vancomycin-resistant Enterococcus faecium after 18 to 20 hrs by agar dilution method; assay type: functional
readout_label: MIC (µg/mL)
Answer format: numeric, µg/mL implied, no suffix.

Here is how some compounds turned out for MIC.
# compound, MIC, µg/mL
measured = [
    ("CC(=O)NC[C@H]1CN(c2ccc(N3CC(=O)C4(CC4)C3)c(F)c2)C(=O)O1", 1.56),
    ("CC(=O)NC[C@H]1CN(c2ccc(N3C/C(=N\\O)C4(CC4)C3)c(F)c2)C(=O)O1", 12.5),
    ("CC(=O)NC[C@H]1CN(c2ccc(N3CC(O)C4(CC4)C3)c(F)c2)C(=O)O1 (stereo not given in full)", 6.25),
    ("CC(=O)NC[C@H]1CN(c2ccc(N3CCOCC3)c(F)c2)C(=O)O1", 1.56),
]

Query string: State the recorded MIC for this entry: `CC(=O)NC[C@H]1CN(c2ccc(N3C/C(=N\N)C4(CC4)C3)c(F)c2)C(=O)O1`
Result string: 25
